The measurements presented in this section are drawn from ChEMBL document CHEMBL3885861.

species on record: Rattus norvegicus; assay: Open TG-GATES - Regimen: Single; type: toxicity, organism-based, Sprague-Dawley; design: regimen Single, gender Male, age 6 weeks; conditions: in vivo, po, 0 mg/kg, 9 h, tissue Blood, route gavage, dose level Control
experimentalEndpoint: Lym (%)
Record the value in %, omitting the unit from your answer.

Use these answered entries as a reference point.
Which Lym is listed for C#C[C@]1(O)CC[C@H]2[C@@H]3CCc4cc(O)ccc4[C@H]3CC[C@@]21C ? 72.2

Which Lym is listed for CN1C(=O)OC(C)(C)C1=O ? 75.2

Which Lym is listed for O=C(N[C@H](CO)[C@H](O)c1ccc([N+](=O)[O-])cc1)C(Cl)Cl ? 71.2

More entries:
Which Lym is listed for Nc1nc(N)c2nc(-c3ccccc3)c(N)nc2n1 ? 73

Which Lym is listed for CCC(C)(C)C(=O)O[C@H]1C[C@@H](C)C=C2C=C[C@H](C)[C@H](CC[C@@H]3C[C@@H](O)CC(=O)O3)[C@H]21 ? 85.6
